biological target: pertussis toxin (native PTx holotoxin) (Bordetella pertussis, strain  …, UniProt P04977;P04978;P04979;P0A3R5;P04981); experiment: ELISA; conditions: both partners purified
MEASURED_ENDPOINT: EC50 (nM)
State the answer as a number, implicitly in nM.

Field: example entries. Status: answers known.
antibody D8 (antibody, V domains shown) VH: QITLRESGAEVTKPGSSVKVSCKASGGTFGSYGIRWVRQAPGQGLEWMGGIIPMFGTANYAQRFQGRVTITADKSTSTAYMELSSLKSEDTAVYYCARENSIVGANWFDPWGQGTLVTVSS VL: EIVMTQSPSSLSASVGDRVTFTCRASQSISTYLNWYQQKPGKAPTLLIYAASTLRSGVPSRFSGSGSGTDFTLTISSLQPVDFATYFCQQSYSSPYTFGQGTTLEIK; 0.14
antibody E12 (antibody, V domains shown) VH: EVQLVESGGDLVQPGGSLRLSCEASGFTFSNYAMSWVRQAPGKGLEWVSGTSGSGGSTYYADSVKGRFTLSRDNSKNTLYLQMNSLRAEDTAVYYCAKDREVLRFFLLPYYFDSWGQGTLVTVSS VL: DIVMTQSPGSLSLSPGERATLSCRASQSVSSDYVAWYQQKPGQAPRLLIFDASTRATGIPDRFSGSGSGTDFTLTIGRLEPEDFAVYYCQQYGNSPLTFGGGAKVEIK; 0.13
antibody A8 (antibody, V domains shown) VH: QVQLVESGAEVKKPGASVKVSCKTSGYTFSSYGITWVRQAPGQGLEWMGWISAYNGDTNYADSVKGRVTMTTDTSTSTAYMELRSLRFDDTAVYYCARDTSFAPSGYGFDISGQGTTVTVSS VL: DIQLTQSPSSLSASVGDRVTITCRASQGIRHELAWYQQKPGKAPQRLIYAASSLQSGVPSRFSGSGSGTDFTLTINSLQPEDSATYYCLQVNSYPRTFGQGTRVDIK; 0.15

Kindly consider the entry below.
// recorded EC50 for antibody H5 (antibody, V domains shown) VH: QVQLVESGPGLVKPSETLSLTCTVSGASVSSGTYYWSWIRQPPGKGLEWIGYSYYTGSSDSNASLKSRVTLSIDTSRNLLSLKLTSVTAADTAVYYCARDRRKVRGVWAGYSGMDVWGPGTTVTVSS VL: EIVMTQSPSSLSASVGDRVTITCQASQEITNYLNWYQQKPGKAPKLLIYDASHLETGVPSRFSGSGSGTDFSFTISSLQPEDIATYYCQQYDDFPWGGVTFGGGTKVEIK : 0.02
